- setupConditions: buffer; pH 7.4; 200.0 µM
property: solubility kinetic (µg/mL)
Just the number in µg/mL, nothing appended.

# input Reported solubility kinetic for COc1cccc(NC(=O)Nc2nc(SC)ns2)c1 : what is it?
# output 1.3

# input Which value of solubility kinetic has been reported for O=C(Nc1ccccc1)Nc1cccc2ccccc12 in the records?
# output 0.3

# input Recorded solubility kinetic for CC(OCC(O)CN1CCCCC1CCO)c1ccc(Cl)cc1 (centres undefined) , please?
# output 42.2

# input So what's the measured solubility kinetic for this one? CC(=O)Nc1ccc(C(=O)CN2C(=O)NC3(CCCc4ccccc43)C2=O)c(F)c1 (centres undefined)
# output 53

# input What solubility kinetic value was documented for this compound, O=C(Oc1ccc(C(=S)N2CCOCC2)cc1)c1ccccc1F ?
# output 36.6

# input If you can, please state the reported solubility kinetic value of Cc1cccc(Cn2cc(C=O)c3ccccc32)c1 .
# output 14.5

# input # lookup: solubility kinetic of CCCCCCCCN=Cc1c(O)[nH]c(=O)[nH]c1=O
# output 1

# input Fill in: solubility kinetic of CN(C)S(=O)(=O)c1cc(NC(=O)COC(=O)CC2Sc3ccccc3NC2=O)ccc1Cl (centres undefined) is ___
# output 12.2

# input For the compound Cc1cccc(NC(=O)c2c(-c3ccccc3)noc2C)n1 , what solubility kinetic is on record?
# output 34.9

# input # solubility kinetic lookup, item C#CCSc1nc(C)cc(C(=O)OCC)c1C#N
# output 7.2

# input For the compound O=C(c1ccc(C(F)(F)F)cc1)C1CCCN(C(=O)c2cnccn2)C1 (centres undefined) , what solubility kinetic is on record?
# output 45.6

# input Look at this compound and give its reported solubility kinetic. CCN(CC)CC(=O)Nc1sc(C)c(C)c1C(=O)c1ccc(C)cc1
# output 4.6

# input Tell me the measured solubility kinetic of Cc1ccccc1NC(=O)CCCC(=O)c1ccccc1 , please.
# output 21.9

# input Can you look up the measured solubility kinetic of CCc1ccccc1NC(=O)c1ccc(S(=O)(=O)N2CCCC2)cc1 for me?
# output 12.2

# input Query: solubility kinetic; subject: CCOC(=O)COc1nc(-c2ccco2)cc(-c2ccco2)c1C#N
# output 2.8

# input # solubility kinetic lookup, item Cc1cc(C)cc(NC(=S)NC(=O)Cc2ccccc2)c1
# output 0.5

====

- setupConditions: buffer; pH 7.4; 200.0 µM
solubility kinetic by entry:
# output: bare number, implied unit µg/mL

compound: O=C(O)C1CCCCC1C(=O)Nc1ccc(OCc2ccccc2)cc1 (stereo unspecified)
property: solubility kinetic
units: µg/mL
reading: 44.2

compound: CC1(C(=O)NC2CCCCC2)CCC(=O)N1Cc1ccc2c(c1)OCO2 (stereo unspecified)
property: solubility kinetic
units: µg/mL
reading: 44.4

compound: N#Cc1cccnc1Oc1ccccc1
property: solubility kinetic
units: µg/mL
reading: 25.3

# input Which solubility kinetic is reported for this compound? CC1CCCN(S(=O)(=O)c2cc(C(=O)NCc3ccco3)ccc2Cl)C1 (stereo unspecified)
# output 52.6

====

- setupConditions: buffer; pH 7.4; 200.0 µM
solubility kinetic vs 40 µg/mL: at or above is 1, below is 0.

Check out these entries, answers already filled in.
compound: CC(CCc1ccccc1)NC(=O)Cc1cccs1 (configuration not stated)
className: 0
//
compound: CC(OC(=O)CCCC(=O)Nc1ccc(F)cc1)C(=O)c1ccccc1 (configuration not stated)
className: 1
//
compound: COc1ccc(N2CC(NC(=O)N3CCc4ccccc43)CC2=O)cc1OC (configuration not stated)
className: 1
//
compound: CN(c1ccccc1)S(=O)(=O)c1ccc(C(=O)NCc2ccccc2F)cc1
className: 0
//
compound: COc1ccc2[nH]c(C(=O)N3CCN(C)CC3)c(C)c2c1
className: 1
//
compound: O=C(Nc1ccc(N2CCOCC2)cc1)c1ccc([N+](=O)[O-])o1
className: 0
//
compound: O=C(CN1c2cccc3cccc(c23)S1(=O)=O)N1CCCCC1
className: 1
//
compound: Cc1ccc2c(CC(=O)NNC(=O)c3ccncc3)coc2c1
className: 1

# input Does the compound N#CCCC(CCC#N)C1=NCCc2ccccc21 have recorded solubility kinetic that is 40 µg/mL or more?
# output 0

# input Identify whether the reported solubility kinetic of the following compound is 40 µg/mL or greater: Cc1ccc(C)c(Cn2c(=O)n(C)c(=O)c3sccc32)c1
# output 0

Data origin, for the record: PubChem BioAssay AID1996
